system_under_test: homomeric ASIC1a (Rattus norvegicus)
Sequence (P55926 1-526): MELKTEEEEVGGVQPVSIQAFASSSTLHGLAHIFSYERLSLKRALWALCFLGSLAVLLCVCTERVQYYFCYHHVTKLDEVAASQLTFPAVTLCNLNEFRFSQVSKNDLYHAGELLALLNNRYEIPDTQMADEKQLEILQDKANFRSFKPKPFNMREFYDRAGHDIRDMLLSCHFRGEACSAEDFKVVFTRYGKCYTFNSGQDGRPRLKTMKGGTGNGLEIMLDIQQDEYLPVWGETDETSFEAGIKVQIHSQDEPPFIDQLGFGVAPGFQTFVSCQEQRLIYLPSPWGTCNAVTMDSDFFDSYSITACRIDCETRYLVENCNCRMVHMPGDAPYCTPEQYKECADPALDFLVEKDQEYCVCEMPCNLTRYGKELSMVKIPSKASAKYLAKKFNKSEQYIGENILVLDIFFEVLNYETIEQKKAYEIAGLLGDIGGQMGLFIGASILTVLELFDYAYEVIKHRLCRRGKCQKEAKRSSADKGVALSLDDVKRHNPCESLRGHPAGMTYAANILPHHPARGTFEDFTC
test_details: ASIC1a current in transfected CHO cells, patch clamp
property_measured: IC50

Look up and report IC50, with homomeric ASIC1a (Rattus norvegicus) as system, for N=C(N)c1ccc(/N=N/Nc2ccc(C(=N)N)cc2)cc1 [Diminazene]
~3 µM

----------
Test system: ASIC currents in cultured hippocampal neurons
test_details: ASIC currents in primary cultured hippocampal neurons, whole-cell voltage clamp
Type: cell-based, mouse
property_measured: pIC50
Quick note: pIC50 values are minus log10 of concentrations in mol/L.

Look up and report pIC50, with ASIC currents in cultured hippocampal neurons as system, for N=C(N)c1ccc(/C=C/c2ccc(C(=N)N)cc2O)cc1 [Hydroxystilbamidine]
5.82
